test system: NCI-H23 lung; assay: NCI-60 one-dose screen, 48 h (100 = growth as untreated, 0 = no growth, -100 = all killed); conditions: 10 µM
Compounds without any hit were thinned out: in the full panel of roughly 83,000, 20% have a hit. Calls of active or inactive are those of the source. The calls were made as follows: active = growth percent below 10; inactive = the rest.
growth for assorted molecules

COc1ccc(C(=O)/C=C/c2ccc(OCc3ccc(Cl)cc3)cc2)cc1OC    84.1% (inactive)

Consider now this further molecule.
Request: Returns the measured growth for the input molecule. Input: `COc1ccc(C(=O)/C=C/c2ccc(OCc3cccc(C(F)(F)F)c3)c(OC)c2)cc1OC`
Response: 69.9% (inactive)

====

growth for assorted compounds
test system: SK-MEL-28 melanoma; experiment: NCI-60 one-dose screen, 48 h (100 = growth as untreated, 0 = no growth, -100 = all killed); details: 10 µM unless noted
The panel holds about 83,000 compounds, 20% with a hit somewhere; the sample as a whole holds those more often.
I only need the number, in %, no unit after it.

Example compounds with recorded growth:
CC[C@]1(O)CC2CN(CCc3c([nH]c4ccccc34)C(C(=O)OC)(c3cc4c(cc3OC)N(C=O)[C@H]3[C@@](O)(C(=O)OC)[C@H](OC(C)=O)[C@]5(CC)[C@@H]6C[C@@H]6CN6CC[C@]43[C@@H]65)C2)C1 (stereo not given in full)    69.5
CCN(CC)CCOc1ccccc1C    98.3
N#Cc1ccccc1-c1ccc(Cn2c(-c3cscn3)nc3c(Cl)cccc32)cc1    105
O=C(/C=C/C12c3ccccc3C(c3ccccc31)C1C(=O)NC(=O)C12)c1ccncc1 (stereo not given)    24.7

Request: Returns the measured growth for the input compound. Input: `Nc1ccc(-c2ccc(N)c(Br)c2)cc1Br`
Response: 58.4

Data origin, for the record: PubChem BioAssay (NCI)
